- system-tested: SGK1 (Homo sapiens, UniProt O00141, S422D)
- Sequence (O00141 60-431 S422D limits assumed): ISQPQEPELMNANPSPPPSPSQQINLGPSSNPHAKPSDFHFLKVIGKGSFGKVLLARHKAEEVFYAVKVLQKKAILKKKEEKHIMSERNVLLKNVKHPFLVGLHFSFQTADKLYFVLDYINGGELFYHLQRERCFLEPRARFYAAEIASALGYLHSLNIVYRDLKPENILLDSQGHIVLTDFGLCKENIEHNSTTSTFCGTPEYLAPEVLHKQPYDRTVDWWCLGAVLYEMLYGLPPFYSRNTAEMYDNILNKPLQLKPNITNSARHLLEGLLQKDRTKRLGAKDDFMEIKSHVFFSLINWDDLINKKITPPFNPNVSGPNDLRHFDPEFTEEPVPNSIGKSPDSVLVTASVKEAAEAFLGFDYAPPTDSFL
- method-notes: IC50 determination, biochemical kinase assay
- condition: not in the presence of VHL
pIC50: −log10 of the molar value.
endpoint-label: pIC50

Cc1ccc(F)c(S(=O)(=O)Nc2ccc(-c3nc(OC[C@H]4CN(CCCCCCOCCOCCOCCOCC(=O)N[C@H](C(=O)N5C[C@H](O)C[C@H]5C(=O)NCc5ccc(-c6scnc6C)cc5)C(C)(C)C)CCO4)c4cn[nH]c4n3)cc2)c1; 5.05

1. COc1ccc(Cl)c(S(=O)(=O)Nc2ccc(-c3nc(OC[C@H]4CN(CCOCCOCCOCC(=O)NCCNc5cccc6c5C(=O)N(C5CCC(=O)NC5=O)C6=O)CCO4)c4c(C)n[nH]c4n3)cc2)c1 (stereo partly shown)
2. Cc1ccc(F)c(S(=O)(=O)Nc2ccc(-c3nc(OC[C@H]4CN(CCOCCOCCOCC(=O)NCCNc5cccc6c5C(=O)N(C5CCC(=O)NC5=O)C6=O)CCO4)c4cn[nH]c4n3)cc2)c1 (stereo partly shown)
Hi there, can you help? I need to know whether 1 or 2 has lower measured pIC50. # reply format: chosen label
2
(2: 6.00, 1: 6.22)
